Target: T1, APC2237-AA
T1 chain: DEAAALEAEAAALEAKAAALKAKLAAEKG
Test: two-hybrid library CCmax;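 also: natural log of median RNA to DNA barcode read ratio; higher means stronger binding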
Conditions: mean of both orientations
MEASURE: interaction score
Note: the reply should be a number with no unit written.

Reference set, count: 3
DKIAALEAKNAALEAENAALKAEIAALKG [4H2458-AA]	-1.44
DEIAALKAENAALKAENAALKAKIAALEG [4H733-AA]	-1.41
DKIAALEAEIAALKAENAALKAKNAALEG [4H2143-AA]	-1.56

Quick note, interaction score for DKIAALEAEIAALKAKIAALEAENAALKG [4H2148-AA] landed at -1.14
